test-system: UniProt:P34976
Sequence (P34976 whole entry): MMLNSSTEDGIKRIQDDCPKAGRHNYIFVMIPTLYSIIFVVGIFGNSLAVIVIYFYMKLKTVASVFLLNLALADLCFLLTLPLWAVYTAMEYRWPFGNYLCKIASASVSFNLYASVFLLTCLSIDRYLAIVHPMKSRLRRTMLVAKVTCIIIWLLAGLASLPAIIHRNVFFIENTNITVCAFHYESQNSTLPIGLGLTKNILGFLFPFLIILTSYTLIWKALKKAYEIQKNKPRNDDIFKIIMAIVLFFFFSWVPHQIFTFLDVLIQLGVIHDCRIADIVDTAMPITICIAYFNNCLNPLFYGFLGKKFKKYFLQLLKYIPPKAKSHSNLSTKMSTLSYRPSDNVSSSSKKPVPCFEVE
experiment: Displacement of [125I]-Sar1Ile8-angiotensin 2 from angiotensin AT1 receptor in rabbit aortic membranes
Type: cell membranes
pIC50: −log10 of the molar value.
measurement-name: pIC50

structure-notation | numeric-result
CCCCc1nn(CC(C)(C)C)c(=O)n1Cc1ccc(-c2ccccc2-c2nnn[nH]2)cc1 | 8.92

---

experiment: Antagonist activity at angiotensin AT1 receptor in rat uterine membranes
Assay type: functional, cell membranes

structure-notation | IC50 / nM
CCCCc1nn(CCCC)c(=O)n1Cc1ccc(-c2ccccc2-c2nn[nH]n2)cc1 | 5.1

---

Target sequence: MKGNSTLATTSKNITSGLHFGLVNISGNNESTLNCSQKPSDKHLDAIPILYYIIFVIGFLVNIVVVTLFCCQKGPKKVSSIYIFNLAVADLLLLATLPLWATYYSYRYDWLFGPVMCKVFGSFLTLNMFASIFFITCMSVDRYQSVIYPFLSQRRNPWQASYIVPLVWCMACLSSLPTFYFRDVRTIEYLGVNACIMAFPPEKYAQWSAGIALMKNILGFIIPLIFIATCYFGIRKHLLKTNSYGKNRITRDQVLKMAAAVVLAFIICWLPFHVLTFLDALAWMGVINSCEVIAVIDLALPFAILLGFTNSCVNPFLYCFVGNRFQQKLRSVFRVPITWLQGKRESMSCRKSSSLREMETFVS

compound | IC50 / nM
CCCCc1nc(Cl)c2n1C(c1ccc(-c3ccccc3-c3nnn[nH]3)cc1)CC(C(=O)O)=C2 (stereo not drawn) | 10
CCc1nc2c(C)cc(C)nc2n1Cc1ccc(-c2ccsc2-c2nn[nH]n2)cc1 | 2.3
CCCCc1nc(Cl)c2n1C(c1ccc(-c3ccccc3-c3nnn[nH]3)cc1)CC=C2C(=O)O (stereo not drawn) | 50

---

test-system: Type-1 angiotensin II receptor (Homo sapiens)
Sequence (P30556 whole entry): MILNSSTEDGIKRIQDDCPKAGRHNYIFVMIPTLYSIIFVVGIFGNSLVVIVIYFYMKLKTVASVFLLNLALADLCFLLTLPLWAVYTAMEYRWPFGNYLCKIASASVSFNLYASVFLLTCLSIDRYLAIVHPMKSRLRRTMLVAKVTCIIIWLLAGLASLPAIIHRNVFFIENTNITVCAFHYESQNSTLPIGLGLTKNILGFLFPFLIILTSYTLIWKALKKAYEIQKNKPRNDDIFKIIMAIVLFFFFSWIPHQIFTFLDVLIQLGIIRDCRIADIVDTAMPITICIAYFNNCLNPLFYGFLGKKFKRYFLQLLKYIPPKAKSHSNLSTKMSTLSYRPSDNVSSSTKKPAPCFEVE
experiment: Antagonist activity at angiotensin AT1 receptor
Type: functional
condition-summary: read-out: pA2 (converted)
Listing: Kb of selected molecules

structure-notation | Kb / nM
CCCCc1nc(Cc2ccc(-c3ccccc3-c3nnn[nH]3)cc2)n(CCCC)n1 | 3.16
CCCCc1nc(CCCC)n(Cc2ccc(-c3ccccc3-c3nnn[nH]3)cc2)n1 | 2
CCCCc1nc2ccc([C@]3(C)C[C@H]4CCCN4O3)cc2c(=O)n1Cc1ccc(-c2ccccc2-c2nn[nH]n2)cc1 | 0.0126
CCCCc1cn(CCCC)c(=O)n1Cc1ccc(-c2ccccc2-c2nnn[nH]2)cc1 | 2.24
CCCCc1nc2ccc(C(C)(C)OC)cc2c(=O)n1Cc1ccc(-c2ccccc2-c2nn[nH]n2)cc1 | 0.0126
C[C@@H]1CN(Cc2ccc(-c3ccccc3-c3nn[nH]n3)cc2)C[C@H](C)O1 | 126
CCCCc1cn([C@H]2[C@H](C)CCC[C@@H]2C)c(=O)n1Cc1ccc(-c2ccccc2-c2nnn[nH]2)nc1 | 0.501
CCCCc1cn(CCCC)c(=O)n1Cc1ccc(-c2ccccc2-c2nnn[nH]2)nc1 | 2.09
